# Study conditions: normal mice, oral gavage, 3mg/kg; Liver; 3h
Measured attribute: Drug concentration, time course
Enter a number only.

>>> df
                                   compound               measured_attribute  result
0  CC1(C)S[C@@H]2[C@H](NC(=O)[C@H](N)c3ccc(O)cc3)C(=O)N2[C@H]1C(=O)O [Amoxicillin, amoxicillin]  Drug concentration, time course    8700
1  Cn1c(=O)cc(N2CCC[C@@H](N)C2)n(Cc2ccccc2C#N)c1=O [Alogliptin, alogliptin]  Drug concentration, time course    6340
2  Cc1ccc([C@@H]2O[C@H](CO)[C@@H](O)[C@H](O)[C@H]2O)cc1Cc1ccc(-c2ccc(F)cc2)s1 [Canagliflozin, canagliflozin]  Drug concentration, time course    4700

Recorded Drug concentration, time course for OC[C@H]1O[C@@H](c2ccc(F)c(Cc3cc4ccccc4s3)c2)[C@H](O)[C@@H](O)[C@@H]1O [Ipragliflozin, ipragliflozin] , please?
7500
